# activity change, negative = toxicity per record follows
TEST_SUMMARY: mammalian cell viability loss – dry powder, set 2, plate reader, cytotoxicity control for antifungal single agent project, dose response (AID 602394)
PARTICULARS: NIH 3T3 fibroblast viability, Alamar Blue fluorescence, 48 h; at 26 µM (top of the series)

| MOL | activity change, negative = toxicity (%) |
| --- | --- |
| O=C1NC(=S)NC12CCCCC2 | 3.57 |
| Cc1ccc(N2C(=S)N(C(=O)Oc3ccccc3)C(=O)C23CCCCC3)cc1 | 0.942 |
| CCOC(=O)N1C(=O)C2(CCCCC2)N(c2ccccc2)C1=S | 17.3 |
| CCOC(=O)N1C(=O)C2(CCCCC2)NC1=S | 4.41 |
| Cc1ccc(N2C(=S)N(S(C)(=O)=O)C(=O)C23CCCCC3)cc1 | -8.26 |
| CCOC(=O)N1C(=O)C2(CCCCC2)N(c2ccc(C#N)cc2)C1=S | 10.9 |
| CCOC(=O)N1C(=O)C(C)(C)N(c2ccc(C)cc2)C1=S | 14.6 |
| CCOC(=O)N1C(=S)NC(=O)C12CCCCC2 | 2.71 |
| O=C1NC(=S)N(c2ccc(F)cc2)C12CCCCC2 | 10.6 |
| CCOC(=O)N1C(=O)C2(CCCCC2)N(C(C)C)C1=S | -8.87 |
| Cc1ccc(N2C(=S)NC(=O)C23CCOCC3)cc1 | 29.4 |
| CCCCN1C(=O)N(c2ccc(C)cc2)C2(CCCCC2)C1=O | -35.3 |
| CC(C)N1C(=S)NC(=O)C12CCCCC2 | 47.5 |
| Cc1ccc(N2C(=O)N(C)C(=O)C23CCCCC3)cc1 | -27.1 |
| Cc1ccc(N2C(=O)NC(=O)C23CCCCC3)cc1 | -10.2 |
| CCOC(=O)N1C(=O)C2(CCCCC2)N(c2ccc(F)cc2)C1=S | -18.1 |
| CCOC(=O)N1C(=O)C2(CCCCC2)N(c2ccccc2C)C1=S | -14 |
| Cc1ccc(N2C(=S)NC(=O)C2(C)C)cc1 | -5 |
| CCOC(=O)N1C(=O)N(c2ccc(C)cc2)C2(CCCCC2)C1=O | 7.79 |
| CCOC(=O)N1C(=O)C2(CCCCC2)N(c2ccc(OC)cc2)C1=S | 21.1 |
| CCCc1ccc(N2C(=S)N(C(=O)OCC)C(=O)C23CCCCC3)cc1 | -15.8 |
| CCOC(=O)N1C(=O)C2(CCCCC2)N(Cc2ccccc2)C1=S | -2.91 |
| Cc1ccc(N2C(=S)NC(=O)C23CCCCC3)cc1 | 12.5 |
| Cc1ccc(N2C(=O)C(=O)NC2=S)cc1 | 3.56 |
| CCOC(=O)N1C(=O)C2(CCCC2)N(c2ccc(C)cc2)C1=S | 8.13 |

Origin of values: PubChem BioAssay AID602394
